TARGET SYSTEM: NOX2 (Homo sapiens)
Construct: Used for the NOX2 activity assay was human leukemia 60 cells (HL-60), which are widely, universally used to assess NOX2 activity; endogenous in cells
Sequence (P04839 2-570 limits assumed): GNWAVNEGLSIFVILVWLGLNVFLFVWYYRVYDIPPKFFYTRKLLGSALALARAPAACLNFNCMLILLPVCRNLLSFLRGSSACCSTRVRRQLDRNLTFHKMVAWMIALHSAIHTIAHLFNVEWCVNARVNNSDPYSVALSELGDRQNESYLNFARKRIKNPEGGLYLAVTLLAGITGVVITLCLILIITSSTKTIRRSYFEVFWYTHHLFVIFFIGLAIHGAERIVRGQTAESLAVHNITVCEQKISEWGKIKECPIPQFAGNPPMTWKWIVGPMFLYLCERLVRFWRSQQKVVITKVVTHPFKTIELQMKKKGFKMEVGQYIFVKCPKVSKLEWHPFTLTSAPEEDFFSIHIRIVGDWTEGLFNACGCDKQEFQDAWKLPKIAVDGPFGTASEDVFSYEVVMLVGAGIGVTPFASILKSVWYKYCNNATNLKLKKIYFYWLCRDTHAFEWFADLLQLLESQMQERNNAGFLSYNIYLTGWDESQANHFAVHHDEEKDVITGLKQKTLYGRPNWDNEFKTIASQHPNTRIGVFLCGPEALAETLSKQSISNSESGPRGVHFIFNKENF
Sequence (P13498 2-195 partner limits assumed): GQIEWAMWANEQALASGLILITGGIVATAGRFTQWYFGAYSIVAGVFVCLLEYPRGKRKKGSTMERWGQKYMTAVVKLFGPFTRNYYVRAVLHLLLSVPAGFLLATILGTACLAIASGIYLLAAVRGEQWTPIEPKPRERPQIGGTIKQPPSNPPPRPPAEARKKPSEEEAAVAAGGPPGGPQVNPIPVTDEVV
METHOD NOTES: NOX2 activity assay: PMA-induced ROS in ATRA-differentiated HL-60 cells (WST-1 or Amplex Red/HRP probe)
CONDITION SUMMARY: WST-1 probe; differentiated HL-60, 200 ng/mL PMA; read-out: Inhibitory ability (NOX2)
MEASUREMENT LABEL: IC50

{"COMPOUND": "CC12CC(NC(=O)N1c1cccc(C(=O)N3CCc4ccccc4C3)c1)c1ccc(Cl)cc1O2 (centres unmarked) [Compound 25j]", "MEASUREMENT LABEL": "IC50", "REPORTED": "1 to 10 µM"}

Request: Give the observed IC50 of CC12CC(NC(=O)N1c1cccc(C(=O)N3CCc4cccc(F)c4C3)c1)c1cc(-c3ccoc3)ccc1O2 (centres unmarked) [Compound 28c] for NOX2 (Homo sapiens).
Response: > 10 µM

Request: Give the observed IC50 of CC12CC(NC(=O)N1c1cccc(C(=O)N3CCc4ccccc4C3)c1)c1cc(C(F)(F)F)ccc1O2 (centres unmarked) [Compound 25b] for NOX2 (Homo sapiens).
Response: > 10 µM

====

Measured IC50 of individual entries
TARGET SYSTEM: NOX2 (Homo sapiens)
Construct: Used for the NOX2 activity assay was human leukemia 60 cells (HL-60), which are widely, universally used to assess NOX2 activity; endogenous in cells
METHOD NOTES: NOX2 activity assay: PMA-induced ROS in ATRA-differentiated HL-60 cells (WST-1 or Amplex Red/HRP probe)
CONDITION SUMMARY: WST-1 probe; differentiated HL-60, 200 ng/mL PMA; read-out: Inhibitory ability (NOX2)

{"COMPOUND": "CC12CC(NC(=O)N1c1cccc(C(=O)N3CCc4ccccc4C3)c1)c1cc(-c3ccoc3)ccc1O2 (stereo not shown) [Compound 26b]", "IC50": "< 1 µM"}

Request: Could you please provide reported IC50 for CC12CC(NC(=O)N1c1cccc(C(=O)N3CCc4ccccc4C3)c1)c1cc(Cl)ccc1O2 (stereo not shown) [Compound 25c] ? Thanks!
Response: 1 to 10 µM

Request: Could you please provide reported IC50 for CC12CC(NC(=O)N1c1cccc(C(=O)NCc3ccc(C(F)(F)F)cc3)c1)c1ccccc1O2 (racemic) ? Thanks!
Response: > 10 µM

Request: Could you please provide reported IC50 for CC12CC(NC(=O)N1c1cccc(C(=O)N3CCc4ncccc4C3)c1)c1cc(-c3ccoc3)ccc1O2 (stereo not shown) [Compound 28k] ? Thanks!
Response: > 10 µM

====

TARGET SYSTEM: NOX2 (Homo sapiens, UniProt P04839)
Construct: Used for the NOX2 activity assay was human leukemia 60 cells (HL-60), which are widely, universally used to assess NOX2 activity; endogenous in cells
Sequence (P04839 2-570 limits assumed): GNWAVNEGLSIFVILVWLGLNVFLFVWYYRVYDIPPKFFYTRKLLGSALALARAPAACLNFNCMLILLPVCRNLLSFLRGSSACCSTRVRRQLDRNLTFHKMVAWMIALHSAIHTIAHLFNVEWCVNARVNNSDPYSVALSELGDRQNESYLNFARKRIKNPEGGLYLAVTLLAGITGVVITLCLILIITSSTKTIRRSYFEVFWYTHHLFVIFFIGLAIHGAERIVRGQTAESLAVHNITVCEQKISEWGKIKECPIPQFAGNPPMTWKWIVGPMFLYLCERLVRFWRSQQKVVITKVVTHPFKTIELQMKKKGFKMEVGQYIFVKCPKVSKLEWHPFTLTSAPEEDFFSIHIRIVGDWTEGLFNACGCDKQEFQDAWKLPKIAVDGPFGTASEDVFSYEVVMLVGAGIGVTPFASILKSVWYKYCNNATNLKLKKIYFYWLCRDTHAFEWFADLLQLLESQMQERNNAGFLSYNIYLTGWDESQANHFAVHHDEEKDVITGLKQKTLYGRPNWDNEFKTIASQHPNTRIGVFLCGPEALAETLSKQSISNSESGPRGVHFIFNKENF
Sequence (P13498 2-195 partner limits assumed): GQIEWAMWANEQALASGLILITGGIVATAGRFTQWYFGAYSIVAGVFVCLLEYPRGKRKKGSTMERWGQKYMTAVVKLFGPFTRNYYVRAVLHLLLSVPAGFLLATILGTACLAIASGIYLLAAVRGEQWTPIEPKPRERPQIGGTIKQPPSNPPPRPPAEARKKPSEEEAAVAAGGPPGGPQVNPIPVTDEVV
METHOD NOTES: NOX2 activity assay: PMA-induced ROS in ATRA-differentiated HL-60 cells (WST-1 or Amplex Red/HRP probe)
CONDITION SUMMARY: WST-1 probe; differentiated HL-60, 200 ng/mL PMA; read-out: Inhibitory ability (NOX2)
pIC50: −log10 of the molar value.
MEASUREMENT LABEL: pIC50

Reference set, count: 3
{"COMPOUND": "CC12CC(NC(=O)N1c1cccc(C(=O)O)c1)c1ccccc1O2 (stereo not drawn)", "TARGET SYSTEM": "NOX2 (Homo sapiens, UniProt P04839)", "pIC50": "< 5.00"}
{"COMPOUND": "CC12CC(NC(=O)N1c1cccc(C(=O)N3CCc4ccccc4C3)c1)c1cccc(Br)c1O2 (stereo not drawn) [Compound 25f]", "TARGET SYSTEM": "NOX2 (Homo sapiens, UniProt P04839)", "pIC50": "< 5.00"}
{"COMPOUND": "CC12CC(NC(=O)N1c1cccc(C(=O)N3CCc4ccccc4C3)c1)c1cc(-c3cccs3)ccc1O2 (stereo not drawn) [Compound 26c]", "TARGET SYSTEM": "NOX2 (Homo sapiens, UniProt P04839)", "pIC50": "< 5.00"}

Request: Could you please provide reported pIC50 for CC12CC(NC(=O)N1c1cccc(C(=O)N3CCc4ccc(C(F)(F)F)cc4C3)c1)c1cc(-c3ccoc3)ccc1O2 (stereo not drawn) [Compound 28f] ? Thanks!
Response: < 5.00

Request: Could you please provide reported pIC50 for CC12CC(NC(=O)N1c1cccc(C(=O)N3CCc4cc(F)ccc4C3)c1)c1cc(Br)ccc1O2 (stereo not drawn) [Compound 27b] ? Thanks!
Response: 5.00 to 6.00

Request: Could you please provide reported pIC50 for CC12CC(NC(=O)N1c1cccc(C(=O)NC3CC3)c1)c1ccccc1O2 (racemic) ? Thanks!
Response: < 5.00

Request: Could you please provide reported pIC50 for CC12CC(NC(=O)N1c1cccc(CNc3cccc(C(F)(F)F)c3)c1)c1ccccc1O2 (stereo not drawn) ? Thanks!
Response: < 5.00

Request: Could you please provide reported pIC50 for CC12CC(NC(=O)N1c1cccc(C(=O)N3CCc4cccc(F)c4C3)c1)c1cc(Br)ccc1O2 (stereo not drawn) [Compound 27c] ? Thanks!
Response: < 5.00

Request: Could you please provide reported pIC50 for CC12CC(NC(=O)N1c1cccc(C(=O)N3CCc4ccccc4C3)c1)c1cc(-c3ccco3)ccc1O2 (stereo not drawn) [Compound 26d] ? Thanks!
Response: < 5.00

Request: Could you please provide reported pIC50 for CC12CC(NC(=O)N1c1cccc(C(=O)N3CCc4ccccc4C3)c1)c1ccc(F)cc1O2 (stereo not drawn) [Compound 25k] ? Thanks!
Response: < 5.00

Request: Could you please provide reported pIC50 for CN(Cc1ccccc1)C(=O)c1cccc(N2C(=O)NC3CC2(C)Oc2ccccc23)c1 (racemic) ? Thanks!
Response: < 5.00

Request: Could you please provide reported pIC50 for CC12CC(NC(=O)N1c1cccc(C(=O)N3CCc4ccc(F)cc4C3)c1)c1cc(-c3ccoc3)ccc1O2 (stereo not drawn) [Compound 28a] ? Thanks!
Response: 5.00 to 6.00

Request: Could you please provide reported pIC50 for CC12CC(NC(=O)N1c1cccc(-c3ccco3)c1)c1ccccc1O2 (stereo not drawn) [Compound 15b] ? Thanks!
Response: < 5.00
